Molecular target: human IL-1beta (human, UniProt P01584 117-269)
Assay: cell-based or functional assay
readout type: EC50, reduction of IL-6 expression, A549 cells (nM)
Give the value, in units of nM, as a plain number.

• huH34-2 (antibody, V domains shown, Humanized, captured by anti-human Fc in SPR; also called huH34-2 bivalent) VH: QVQLVQSGAEVKKPGASVKVSCKASGYTFTGYYMHWVRQAPGQGLEWIGYISSYNAFTTYNQKFRGRATFTVDTSISTAYMELSRLRSDDTAVYYCVRSDYYGTSLYWGQGTLVTVSS VL: EIVLTQSPATLSLSPGERATLSCRASSSVSYMHWSQQKPGQAPRLLIYSTSNLASGIPARFSGSGSGTDFTLTISSLEPEDFAVYYCHQWSNYYTFGQGTKLEIK = 0.11

In: Consider the binder shown here: huH34-1 (antibody, V domains shown) VH: QVQLVQSGAEVKKPGASVKVSCKASGYTFTGYYMHWVRQAPGQGLEWMGYISSYSGFTTYAQKFQGRVTMTRDTSISTAYMELSRLRSDDTAVYYCARSDYYGTSLYWGQGTLVTVSS VL: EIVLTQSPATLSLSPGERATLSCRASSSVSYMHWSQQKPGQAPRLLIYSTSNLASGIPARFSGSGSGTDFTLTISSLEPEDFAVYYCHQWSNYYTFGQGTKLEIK What is its recorded EC50, reduction of IL-6 expression, A549 cells?
Out: 5.52

In: Returns the measured EC50, reduction of IL-6 expression, A549 cells for the input binder. Input: huH34-3 (antibody, V domains shown) VH: QVQLVQSGAEVKKPGASVKVSCKASGYTFTGYYMHWVRQAPGQGLEWIGYISSYSAFTTYNQKFRGRATFTVDTSISTAYMELSRLRSDDTAVYYCVRSDYYGTSLYWGQGTLVTVSS VL: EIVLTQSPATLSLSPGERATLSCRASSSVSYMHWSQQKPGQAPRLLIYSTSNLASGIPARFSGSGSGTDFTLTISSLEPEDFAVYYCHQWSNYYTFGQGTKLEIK
Out: 1.09

In: EC50, reduction of IL-6 expression, A549 cells lookup needed for Canakinumab (antibody, V domains shown) VH: QVQLVESGGGVVQPGRSLRLSCAASGFTFSVYGMNWVRQAPGKGLEWVAIIWYDGDNQYYADSVKGRFTISRDNSKNTLYLQMNGLRAEDTAVYYCARDLRTGPFDYWGQGTLVTVSS VL: EIVLTQSPDFQSVTPKEKVTITCRASQSIGSSLHWYQQKPDQSPKLLIKYASQSFSGVPSRFSGSGSGTDFTLTINSLEAEDAAAYYCHQSSSLPFTFGPGTKVDIKR , thanks.
Out: 0.12
